Reference source for all entries: patent US20260070917A1

Target: CDK2 (Homo sapiens)
Construct: host or cells: HEK293-CDK2-Hibit
Assay: HiBit Assay Protocol for CDK2 (HIBIT protein quantification, degradation)
Format: cell-based
Settings: HEK293-CDK2-Hibit cells, compound treatment for 6 hours
Recorded CDK2 HIBIT Protein Quantification Maximum values for a group of compounds are listed next.
ASSAY_ENDPOINT: CDK2 HIBIT Protein Quantification Maximum

>  <COMPOUND>
CC1CCCC1N1C(=O)C2(CC2)c2cnc(NC3CCN(S(=O)(=O)N4CCC5(CCCN5C(=O)CCc5cccc6c5n(C)c(=O)n6C5CCC(=O)NC5=O)C4)CC3)nc21 (stereo not drawn)

>  <RESULT>
54%

$$$$
>  <COMPOUND>
CC1CCCC1N1C(=O)C2(CC2)c2cnc(NC3CCN(S(=O)(=O)C4CCCN(C(=O)CCCCCc5cccc6c5n(C)c(=O)n6C5CCC(=O)NC5=O)C4)CC3)nc21 (stereo not drawn)

>  <RESULT>
39%

$$$$
>  <COMPOUND>
CC1CCCC1N1C(=O)C2(CC2)c2cnc(NC3CCN(S(=O)(=O)N4CC5(CCCCN5C(=O)CCCc5cccc6c5n(C)c(=O)n6C5CCC(=O)NC5=O)C4)CC3)nc21 (stereo not drawn)

>  <RESULT>
42%

$$$$

* * *

Target: CDK2 (Homo sapiens, UniProt P24941)
Construct: host or cells: HEK293-CDK2-Hibit
Experiment: HiBit Assay Protocol for CDK2 (HIBIT protein quantification, degradation)
Assay type: cell-based
Conditions: HEK293-CDK2-Hibit cells, compound treatment for 6 hours, ABS DC50
Param label: returns yes when DC50 < 7 nM, returns no otherwise, including exact equality.

>  <COMPOUND>
Cn1nc(N2CCC(=O)NC2=O)c2ccc(C3CCN(Cc4cccc(S(=O)(=O)N5CCC(Nc6ncc7c(n6)N([C@@H]6CCC[C@@H](O)C6)C(=O)C76CCC6)CC5)c4)CC3)cc21

>  <ASSIGNED_LABEL>
yes

$$$$
>  <COMPOUND>
C[C@@H]1CN(c2ccc3c(N4CCC(=O)NC4=O)nn(C)c3c2)CCN1[C@H](C)c1cccc(S(=O)(=O)N2CC[C@H](Nc3ncc4c(n3)N([C@@H]3CCC[C@@H](O)C3)C(=O)C43CC3)[C@H](F)C2)c1

>  <ASSIGNED_LABEL>
no

$$$$
>  <COMPOUND>
C[C@@H](C1CC1)N1C(=O)C2(CC2)c2cnc(NC3CCN(S(=O)(=O)c4cccc(CN5CCC(c6ccc7c(N8CCC(=O)NC8=O)nn(C)c7c6)CC5)c4)CC3)nc21

>  <ASSIGNED_LABEL>
yes

$$$$
>  <COMPOUND>
CC1CCCC1N1C(=O)C2(CC2)c2cnc(NC3CCN(S(=O)(=O)N4CC5(CCN(C(=O)CCCCCCCc6cccc7c6n(C)c(=O)n7C6CCC(=O)NC6=O)CC5)C4)CC3)nc21 (centres unmarked)

>  <ASSIGNED_LABEL>
yes

$$$$

* * *

Molecular target: CDK2 (Homo sapiens, UniProt P24941)
Construct: host or cells: HEK293-CDK2-Hibit
Experiment: HiBit Assay Protocol for CDK2 (HIBIT protein quantification, degradation)
Type: cell-based
Details: HEK293-CDK2-Hibit cells, compound treatment for 6 hours
Param label: returns t when CDK2 HIBIT Protein Quantification Maximum < 40%, returns f otherwise, including exact equality.

>  <MOLECULE>
C[C@@H](c1cc(S(=O)(=O)N2CC[C@H](Nc3ncc4c(n3)N([C@@H]3CCC[C@@H](O)C3)C(=O)C43CC3)[C@H](F)C2)ccc1F)N1CCN(c2ccc3c(N4CCC(=O)NC4=O)nn(C)c3c2)CC1 [Compound 211]

>  <STUDY_SYSTEM>
CDK2 (Homo sapiens, UniProt P24941)

>  <ASSIGNED_LABEL>
f

$$$$
>  <MOLECULE>
CC1CCCC1N1C(=O)C2(CC2)c2cnc(NC3CCN(S(=O)(=O)N4CCN(C(=O)CCCCCc5cccc6c5n(C)c(=O)n6C5CCC(=O)NC5=O)CC4)CC3)nc21 (centres unmarked) [Compound 38]

>  <STUDY_SYSTEM>
CDK2 (Homo sapiens, UniProt P24941)

>  <ASSIGNED_LABEL>
f

$$$$
>  <MOLECULE>
Cc1c(CN2CCC(c3ccc4c(N5CCC(=O)NC5=O)nn(C)c4c3)CC2)cccc1S(=O)(=O)N1CCC(Nc2ncc3c(n2)N([C@@H]2CCC[C@@H](O)C2)C(=O)C32CC2)CC1 [Compound 159]

>  <STUDY_SYSTEM>
CDK2 (Homo sapiens, UniProt P24941)

>  <ASSIGNED_LABEL>
f

$$$$
>  <MOLECULE>
CC1CCCC1N1C(=O)C2(CC2)c2cnc(NC3CCN(S(=O)(=O)N4CCN(C(=O)CCCCc5ccc6c(c5)n(C)c(=O)n6C5CCC(=O)NC5=O)CC4)CC3)nc21 (centres unmarked) [Compound 12]

>  <STUDY_SYSTEM>
CDK2 (Homo sapiens, UniProt P24941)

>  <ASSIGNED_LABEL>
t

$$$$
>  <MOLECULE>
CC(C)[C@H]1CN([C@@H](C)c2cccc(S(=O)(=O)N3CC[C@H](Nc4ncc5c(n4)N([C@@H]4CCC[C@@H](O)C4)C(=O)C54CC4)[C@H](F)C3)c2)CCN1c1ccc2c(N3CCC(=O)NC3=O)nn(C)c2c1 (single isomer, unassigned) [Compound 202]

>  <STUDY_SYSTEM>
CDK2 (Homo sapiens, UniProt P24941)

>  <ASSIGNED_LABEL>
f

$$$$
>  <MOLECULE>
CC1CCCC1N1C(=O)C2(CC2)c2cnc(NC3CCN(S(=O)(=O)C4CCN(C(=O)CCCCCc5cccc6c5n(C)c(=O)n6C5CCC(=O)NC5=O)C4)CC3)nc21 (centres unmarked) [Compound 1]

>  <STUDY_SYSTEM>
CDK2 (Homo sapiens, UniProt P24941)

>  <ASSIGNED_LABEL>
f

$$$$
>  <MOLECULE>
CC1CCCC1N1C(=O)C2(CC2)c2cnc(NC3CCN(S(=O)(=O)N4CC5(CN(CCCCOc6ccc7c(c6)n(C)c(=O)n7C6CCC(=O)NC6=O)C5)C4)CC3)nc21 (centres unmarked) [Compound 143]

>  <STUDY_SYSTEM>
CDK2 (Homo sapiens, UniProt P24941)

>  <ASSIGNED_LABEL>
t

$$$$
>  <MOLECULE>
CC1CCCC1N1C(=O)C2(CC2)c2cnc(NC3CCN(S(=O)(=O)N4CCCC45CCN(C(=O)CCCCc4ccc6c(c4)n(C)c(=O)n6C4CCC(=O)NC4=O)C5)CC3)nc21 (centres unmarked) [Compound 104]

>  <STUDY_SYSTEM>
CDK2 (Homo sapiens, UniProt P24941)

>  <ASSIGNED_LABEL>
t

$$$$
>  <MOLECULE>
CC1CCCC1N1C(=O)C2(CC2)c2cnc(NC3CCN(S(=O)(=O)C4CCN(C(=O)CCCCCCCc5cccc6c5n(C)c(=O)n6C5CCC(=O)NC5=O)C4)CC3)nc21 (centres unmarked) [Compound 6]

>  <STUDY_SYSTEM>
CDK2 (Homo sapiens, UniProt P24941)

>  <ASSIGNED_LABEL>
f

$$$$
>  <MOLECULE>
CC1CCCC1N1C(=O)C2(CC2)c2cnc(NC3CCN(S(=O)(=O)C4CCCN(C(=O)CCCCCCCc5ccc6c(c5)n(C)c(=O)n6C5CCC(=O)NC5=O)C4)CC3)nc21 (centres unmarked) [Compound 85]

>  <STUDY_SYSTEM>
CDK2 (Homo sapiens, UniProt P24941)

>  <ASSIGNED_LABEL>
t

$$$$
>  <MOLECULE>
CC1CCCC1N1C(=O)C2(CC2)c2cnc(NC3CCN(S(=O)(=O)N4CC5CN(C(=O)CCCc6ccc7c(c6)n(C)c(=O)n7C6CCC(=O)NC6=O)CC54)CC3)nc21 (centres unmarked) [Compound 70]

>  <STUDY_SYSTEM>
CDK2 (Homo sapiens, UniProt P24941)

>  <ASSIGNED_LABEL>
t

$$$$
>  <MOLECULE>
Cn1nc(N2CCC(=O)NC2=O)c2ccc(C3CCN(Cc4cccc(S(=O)(=O)N5CCC(Nc6ncc7c(n6)N([C@@H]6CCC[C@@H](O)C6)C(=O)C76CC6)CC5)c4)C(C)(C)C3)cc21 (some centres unmarked) [Compound 183]

>  <STUDY_SYSTEM>
CDK2 (Homo sapiens, UniProt P24941)

>  <ASSIGNED_LABEL>
f

$$$$
>  <MOLECULE>
CC1CCCC1N1C(=O)C2(CC2)c2cnc(NC3CCN(S(=O)(=O)C4CCN(C(=O)CCCCc5cccc6c5n(C)c(=O)n6C5CCC(=O)NC5=O)C4)CC3)nc21 (centres unmarked) [Compound 11]

>  <STUDY_SYSTEM>
CDK2 (Homo sapiens, UniProt P24941)

>  <ASSIGNED_LABEL>
f

$$$$
>  <MOLECULE>
CC1CCCC1N1C(=O)C2(CC2)c2cnc(NC3CCN(S(=O)(=O)N4CCC5(CCCN5C(=O)CCCCCc5cccc6c5n(C)c(=O)n6C5CCC(=O)NC5=O)C4)CC3)nc21 (centres unmarked) [Compound 36]

>  <STUDY_SYSTEM>
CDK2 (Homo sapiens, UniProt P24941)

>  <ASSIGNED_LABEL>
f

$$$$
>  <MOLECULE>
CC1CCCC1N1C(=O)C2(CC2)c2cnc(NC3CCN(S(=O)(=O)N4CCCN(C(=O)CCCc5ccc6c(c5)n(C)c(=O)n6C5CCC(=O)NC5=O)CC4)CC3)nc21 (centres unmarked) [Compound 72]

>  <STUDY_SYSTEM>
CDK2 (Homo sapiens, UniProt P24941)

>  <ASSIGNED_LABEL>
t

$$$$
>  <MOLECULE>
Cn1nc(N2CCC(=O)NC2=O)c2ccc(C3CCN(Cc4cccc(S(=O)(=O)N5CC[C@H](Nc6ncc7c(n6)N([C@@H]6CCC[C@@H](O)C6)C(=O)C76CC6)[C@@H](F)C5)c4)CC3)cc21 [Compound 157]

>  <STUDY_SYSTEM>
CDK2 (Homo sapiens, UniProt P24941)

>  <ASSIGNED_LABEL>
t

$$$$
>  <MOLECULE>
CC1CCCC1N1C(=O)C2(CC2)c2cnc(NC3CCN(S(=O)(=O)N4CCC5(CCN(C(=O)CCc6ccc7c(c6)n(C)c(=O)n7C6CCC(=O)NC6=O)C5)C4)CC3)nc21 (centres unmarked) [Compound 60]

>  <STUDY_SYSTEM>
CDK2 (Homo sapiens, UniProt P24941)

>  <ASSIGNED_LABEL>
t

$$$$
>  <MOLECULE>
O=C1CCC(N2Cc3cc(N4CC5(CN(Cc6cccc(S(=O)(=O)N7CCC(Nc8ncc9c(n8)N([C@@H]8CCC[C@@H](O)C8)C(=O)C98CC8)CC7)c6)C5)C4)ccc3C2=O)C(=O)N1 (some centres unmarked) [Compound 120]

>  <STUDY_SYSTEM>
CDK2 (Homo sapiens, UniProt P24941)

>  <ASSIGNED_LABEL>
f

$$$$
